Molecular target: IgE-Tb binding to sFcεR1α-Y131A-AF488 (Homo sapiens, UniProt P01854, N146Q/N252Q)
Construct: fused on or other part: LanthaScreen amine-reactive terbium chelate label on IgE-Fc (about 4 Tb per IgE-Fc)
Sequence (P01854 whole entry N146Q/N252Q, the tested form may be a part): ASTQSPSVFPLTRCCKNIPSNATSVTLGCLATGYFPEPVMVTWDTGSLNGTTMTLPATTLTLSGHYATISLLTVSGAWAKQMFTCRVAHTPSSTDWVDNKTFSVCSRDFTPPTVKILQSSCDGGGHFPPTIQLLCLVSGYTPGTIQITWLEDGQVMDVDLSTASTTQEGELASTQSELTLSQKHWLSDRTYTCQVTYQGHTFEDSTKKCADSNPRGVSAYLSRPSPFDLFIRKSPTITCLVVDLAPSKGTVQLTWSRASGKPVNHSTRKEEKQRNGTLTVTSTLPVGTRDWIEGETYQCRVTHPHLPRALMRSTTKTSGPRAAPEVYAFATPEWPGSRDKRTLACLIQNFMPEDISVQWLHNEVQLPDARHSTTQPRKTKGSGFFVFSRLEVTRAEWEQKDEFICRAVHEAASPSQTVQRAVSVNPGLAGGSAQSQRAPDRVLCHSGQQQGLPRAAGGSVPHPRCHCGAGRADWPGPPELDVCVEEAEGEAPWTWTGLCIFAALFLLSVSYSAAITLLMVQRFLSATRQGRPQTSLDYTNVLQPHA
Assay: In vitro FRET assay of IgE-Tb binding to sFcεR1α receptor (protocol for examples 9 and 10, 18 hours incubation)
Conditions: examples 9 and 10: compound incubated 30 minutes with IgE-Tb before sFcεR1α-Y131A-AF488; incubated 18 hours at room temperature; read-out: FRET IC50 range
Experimental: In vitro Biochemical Assay: Protocol for preparation of IgE-Tb reagent […] (§1) The integrity of the conjugated material was determined by analytical size exclusion chromatography on a 5200 HR 10×300 column (GE Healthcare). […] as §1
Reported IC50 is given for each of the following compounds.

compound	IC50
CC(C)CNS(=O)(=O)c1c2c(cc3c1NC(C1CC1)=NO3)CCCC2	50 to 100 nM

Field: next compound
Briefly, IC50 measured for CC(C)CNS(=O)(=O)c1c2c(cc3oc(C4CC4)nc13)CCC(n1cnnc1Nc1cc(C(F)F)nn1C)C2 (centres unmarked) : 50 to 100 nM

These measurements were taken from patent US12410161B2.
